Measured values drawn from patent US20220273710A1 for this set.

systemUnderTest: T1, Recombinant purified CD79b (R&D systems) (human, UniProt P40259 29-159)
T1 construct: Bought protein
T1 sequence: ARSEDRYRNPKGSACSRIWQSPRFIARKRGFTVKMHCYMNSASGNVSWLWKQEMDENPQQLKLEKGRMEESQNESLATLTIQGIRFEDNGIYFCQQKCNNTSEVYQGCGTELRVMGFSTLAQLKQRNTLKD
experimentSummary: SPR, Biacore 8K, antibody immobilised on CM5 chip, CD79b as analyte, 25° C, 1:1 Langmuir fit
readout: pKd
// field semantics: pKd = negative decimal log of concentration (mol/L)

Would you please look over these solved cases?
binder: 7G4 (antibody, mouse IgG2a, V domains shown, also called 7G4 antibody; clone 7G4) VH: AVQLVESGGGLVQPKESLKISCAASGFTFSNAAMYWVRQAPGKGLEWVARIRTKPNNYATNYADSVKGRFTISRDDSKSMVYLQMDNLKTEDTAMYYCTYYDGSSYAMDAWGQGTSVTVSS VL: DVVLTQTPVSLSVTLGDQASISCRSSQSLEYSDGYTYLDWYLQKPGQSPQLLIYEISNRFSGVPDRFIGSGSGTDFTLKISRVEPEDLGVYYCFQATHDPYTFGAGTKLEIK
pKd: 8.51
--
binder: 3H2 (antibody, mouse IgG2a, V domains shown, also called 3H2 antibody; clone 3H2) VH: AVQLVESGGGLVQPKESLKLSCAASGFTFSHTAMYWVRQAPGKGLECVARIRIQPKNYATYYADSVKGRFTISRDDSKSMVYLQMDNLKTEDTAMYYCTAAGFGFDYWGQGVMVTVSS VL: DVVLTQTPVSLSVTLGDQASISCRSSQSLEYSDGNTYLEWYLQKPGQSPQLLIYEVSKRFSGVPDRFIGSGSGTDFTLKISRVEPEDLGIYYCLQATHDPFTFGSGTKLEIK
pKd: 8.58

Next item in the queue.
Fill in: pKd of Polatuzumab (antibody, V domains shown, polatuzumab'; also called humanised anti-CD79b 2F2; anti-CD79b antibody polatuzumab) VH: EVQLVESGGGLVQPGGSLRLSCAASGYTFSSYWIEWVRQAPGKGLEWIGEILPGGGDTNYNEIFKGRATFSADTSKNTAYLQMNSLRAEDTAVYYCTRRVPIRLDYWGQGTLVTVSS VL: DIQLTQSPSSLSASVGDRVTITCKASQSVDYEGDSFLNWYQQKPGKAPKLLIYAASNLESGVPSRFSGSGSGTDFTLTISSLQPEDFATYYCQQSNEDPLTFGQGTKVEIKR is ___
8.16
